Tested on: Amaranthus
Assay: Post-emergence test/greenhouse
Assay type: in vivo
Settings: Table C, 15 g/ha, after three weeks
Description: To produce a suitable preparation of active compound, 1 part by weight of active compound is mixed with the stated amount of solvent, the stated amount of emulsifier is added and the concentrate is diluted with water to the desired concentration. Test plants which have a height of 5-15 cm are sprayed with the preparation of active compound in such a way as to apply the particular amounts of active compound desired per unit area. […]
experimental.endpoint: degree of damage, Amaranthus (%)

>>> value_reported("Cn1c(C(F)(F)F)cc(=O)n(-c2cc(NS(C)(=O)=O)c(C(N)=S)cc2F)c1=S [Example 26]")
90
>>> value_reported("CCS(=O)(=O)Nc1cc(-n2nc3n(c2=O)CCCC3)c(F)cc1C(N)=S [Example 1]")
95
>>> value_reported("CCS(=O)(=O)Nc1cc(-n2nc(C3CC3)n(C)c2=O)c(F)cc1C(N)=S [Example 13]")
100
>>> value_reported("COCCOCCOc1cc(-n2nc(C)n(C(F)F)c2=O)c(F)cc1C(N)=S [Example 51]")
100
>>> value_reported("Cn1c(C(F)(F)F)nn(-c2cc(NS(C)(=O)=O)c(C(N)=S)cc2F)c1=S [Example 34]")
100
>>> value_reported("CCn1c(C(F)(F)F)nn(-c2cc(NS(=O)(=O)CC)c(C(N)=S)cc2F)c1=O [Example 5]")
100
